Tgt: Gal(b1-3)GlcNAc(b1-3)Gal(b1-4)GlcNAc(b1-2)Man(a1-3)[Gal(b1-3)GlcNAc(b1-3)Gal(b1-4)GlcNAc(b1-2)Man(a1-6)]Man(b1-4)GlcNAc(b1-4)GlcNAc
Assay Comment: glycan array binding signal (z-score within array); higher = stronger binding
Particulars: glycan notation: IUPAC condensed, linker removed
The entries come from a sample that favours the strongest signals as a whole.
Parameter Measured: glycan array binding signal (z-score)

{"columns": ["Binder", "Numeric Result"],
 "data": [
  ["Erv46-EDTA (Saccharomyces cerevisiae), P39727 (protein) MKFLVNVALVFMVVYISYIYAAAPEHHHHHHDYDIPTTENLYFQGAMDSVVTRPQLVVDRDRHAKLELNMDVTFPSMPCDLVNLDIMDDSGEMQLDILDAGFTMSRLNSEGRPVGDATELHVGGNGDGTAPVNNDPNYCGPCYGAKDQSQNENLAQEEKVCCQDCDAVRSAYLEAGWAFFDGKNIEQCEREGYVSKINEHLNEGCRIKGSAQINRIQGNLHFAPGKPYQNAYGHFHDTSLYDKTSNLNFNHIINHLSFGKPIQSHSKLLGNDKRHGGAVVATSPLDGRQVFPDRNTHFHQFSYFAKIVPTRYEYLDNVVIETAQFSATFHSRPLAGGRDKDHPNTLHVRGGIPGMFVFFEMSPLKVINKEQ", 0.126],
  ["MGL2 (Mus musculus), Q8JZN1 (protein) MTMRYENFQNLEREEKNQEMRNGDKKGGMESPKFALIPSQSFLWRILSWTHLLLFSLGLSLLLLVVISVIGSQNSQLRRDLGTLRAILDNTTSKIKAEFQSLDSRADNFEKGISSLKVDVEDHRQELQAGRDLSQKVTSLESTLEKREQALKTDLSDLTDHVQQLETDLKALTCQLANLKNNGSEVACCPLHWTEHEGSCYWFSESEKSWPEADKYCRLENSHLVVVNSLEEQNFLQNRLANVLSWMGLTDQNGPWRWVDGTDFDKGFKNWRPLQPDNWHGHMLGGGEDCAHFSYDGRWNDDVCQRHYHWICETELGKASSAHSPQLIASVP", -0.097],
  ["Dectin2 (Homo sapiens), Q6EIG7 (protein) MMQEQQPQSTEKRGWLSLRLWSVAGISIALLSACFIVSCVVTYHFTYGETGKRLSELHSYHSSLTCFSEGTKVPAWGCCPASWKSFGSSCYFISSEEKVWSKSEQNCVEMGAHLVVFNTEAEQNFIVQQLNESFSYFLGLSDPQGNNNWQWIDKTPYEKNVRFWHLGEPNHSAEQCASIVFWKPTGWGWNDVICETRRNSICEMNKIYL", 0.015],
  ["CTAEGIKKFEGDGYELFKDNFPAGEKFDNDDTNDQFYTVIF [MUB40 (Lactobacillus reuteri)]", 4.29],
  ["LgFlo1 (Saccharomyces pastorianus), B3IUA8 (protein) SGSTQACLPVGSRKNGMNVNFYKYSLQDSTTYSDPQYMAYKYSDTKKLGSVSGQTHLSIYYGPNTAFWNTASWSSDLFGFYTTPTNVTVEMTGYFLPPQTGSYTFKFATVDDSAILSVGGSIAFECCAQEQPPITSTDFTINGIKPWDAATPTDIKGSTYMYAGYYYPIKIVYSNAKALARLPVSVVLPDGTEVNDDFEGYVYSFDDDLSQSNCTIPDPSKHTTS", -0.078],
  ["Mincle (Bos taurus) (protein) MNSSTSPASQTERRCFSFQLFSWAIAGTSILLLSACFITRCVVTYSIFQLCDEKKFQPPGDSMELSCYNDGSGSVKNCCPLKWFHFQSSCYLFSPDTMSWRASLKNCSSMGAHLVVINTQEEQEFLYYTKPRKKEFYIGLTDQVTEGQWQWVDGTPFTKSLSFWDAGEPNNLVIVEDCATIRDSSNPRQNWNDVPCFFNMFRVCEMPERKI", 0.271],
  ["SUN4 (Saccharomyces cerevisiae), P53616 (protein) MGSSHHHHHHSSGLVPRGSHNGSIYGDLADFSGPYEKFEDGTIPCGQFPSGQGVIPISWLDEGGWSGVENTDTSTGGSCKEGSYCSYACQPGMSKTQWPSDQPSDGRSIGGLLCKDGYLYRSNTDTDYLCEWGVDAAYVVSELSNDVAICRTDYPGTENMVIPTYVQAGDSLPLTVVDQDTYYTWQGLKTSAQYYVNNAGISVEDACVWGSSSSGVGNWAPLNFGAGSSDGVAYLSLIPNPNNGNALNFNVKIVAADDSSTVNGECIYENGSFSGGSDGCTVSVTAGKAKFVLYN", 0.342]
]}

// data source = the supplement of paper PMC8728848
